molecular target: Melanocortin receptor 4 (Homo sapiens, UniProt P32245); note: assay procedure not described here
Sequence (P32245 whole entry): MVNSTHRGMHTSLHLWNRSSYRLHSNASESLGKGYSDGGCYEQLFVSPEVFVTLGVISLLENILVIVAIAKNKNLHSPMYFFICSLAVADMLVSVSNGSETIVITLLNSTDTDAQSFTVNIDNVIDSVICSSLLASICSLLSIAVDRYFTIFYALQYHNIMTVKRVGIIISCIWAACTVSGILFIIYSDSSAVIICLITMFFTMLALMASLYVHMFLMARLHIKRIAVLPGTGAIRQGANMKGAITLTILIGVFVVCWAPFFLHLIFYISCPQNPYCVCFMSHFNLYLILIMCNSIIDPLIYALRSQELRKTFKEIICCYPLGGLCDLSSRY
Overview of recorded AC50 for various compounds

Please review the following examples before continuing.
| COMPOUND | OBSERVABLE | EXPERIMENTAL_RESULT |
| --- | --- | --- |
| C[C@]12CC[C@H](O)CC1=CC[C@@H]1[C@@H]2CC[C@]2(C)C(c3cccnc3)=CC[C@@H]12 [ABIRATERONE] | AC50 | > 30 µM |
| COCCCOc1ccnc(C[S+]([O-])c2nc3ccccc3[nH]2)c1C (configuration not stated) [RABEPRAZOLE] | AC50 | > 30 µM |
| COC1=C(OC)C(=O)C(CCCCCCCCCCO)=C(C)C1=O [IDEBENONE] | AC50 | > 30 µM |

[ask] Fill in the recorded AC50 for this compound, with Melanocortin receptor 4 (Homo sapiens, UniProt P32245) as test system: C=CC(N)CCC(=O)O (configuration not stated) [VIGABATRIN]
[reply] > 10 µM

[ask] Fill in the recorded AC50 for this compound, with Melanocortin receptor 4 (Homo sapiens, UniProt P32245) as test system: CC(NCCc1ccc(O)cc1)C(O)c1ccc(O)cc1 (configuration not stated) [RITODRINE]
[reply] > 10 µM

[ask] Fill in the recorded AC50 for this compound, with Melanocortin receptor 4 (Homo sapiens, UniProt P32245) as test system: CC(C)(C)NCC(O)c1cc(Cl)c(N)c(Cl)c1 (configuration not stated) [CLENBUTEROL]
[reply] > 30 µM

[ask] Fill in the recorded AC50 for this compound, with Melanocortin receptor 4 (Homo sapiens, UniProt P32245) as test system: O=C1CN2Cc3c(ccc(Cl)c3Cl)N=C2N1 [ANAGRELIDE]
[reply] > 30 µM

[ask] Fill in the recorded AC50 for this compound, with Melanocortin receptor 4 (Homo sapiens, UniProt P32245) as test system: O=C1CN=C(c2ccccc2)c2cc(Cl)ccc2N1 [NORDAZEPAM]
[reply] > 30 µM

[ask] Fill in the recorded AC50 for this compound, with Melanocortin receptor 4 (Homo sapiens, UniProt P32245) as test system: CNCC[C@H](Oc1cccc2ccccc12)c1cccs1 [DULOXETINE]
[reply] 17.8 µM

[ask] Fill in the recorded AC50 for this compound, with Melanocortin receptor 4 (Homo sapiens, UniProt P32245) as test system: CC(=O)OCC[N+](C)(C)C [ACETYLCHOLINE]
[reply] > 30 µM

[ask] Fill in the recorded AC50 for this compound, with Melanocortin receptor 4 (Homo sapiens, UniProt P32245) as test system: COc1ccc(C(CN(C)C)C2(O)CCCCC2)cc1 (configuration not stated) [VENLAFAXINE]
[reply] > 30 µM

----------
Read-out record for Gamma-aminobutyric acid receptor subunit alpha-1 (Rattus norvegicus, UniProt P62813): AC50

Please review the following examples before continuing.
| COMPOUND | SYSTEM | AC50 |
| --- | --- | --- |
| CCC(=O)O[C@@H](O[P@](=O)(CCCCc1ccccc1)CC(=O)N1C[C@H](C2CCCCC2)C[C@H]1C(=O)O)C(C)C | Gamma-aminobutyric acid receptor subunit alpha-1 (Rattus norvegicus, UniProt P62813) | > 30 µM |
| O=c1oc2ccccc2c(O)c1Cc1c(O)c2ccccc2oc1=O | Gamma-aminobutyric acid receptor subunit alpha-1 (Rattus norvegicus, UniProt P62813) | > 10 µM |
| C[n+]1ccccc1/C=N/O | Gamma-aminobutyric acid receptor subunit alpha-1 (Rattus norvegicus, UniProt P62813) | > 30 µM |
| CNCCC=C1c2ccccc2CCc2ccccc21 | Gamma-aminobutyric acid receptor subunit alpha-1 (Rattus norvegicus, UniProt P62813) | > 30 µM |

[ask] Fill in the recorded AC50 for this compound, with Gamma-aminobutyric acid receptor subunit alpha-1 (Rattus norvegicus, UniProt P62813) as test system: Cc1cc(CC(=O)O)n(C)c1C(=O)c1ccc(Cl)cc1 [ZOMEPIRAC]
Sequence (P62813 whole entry): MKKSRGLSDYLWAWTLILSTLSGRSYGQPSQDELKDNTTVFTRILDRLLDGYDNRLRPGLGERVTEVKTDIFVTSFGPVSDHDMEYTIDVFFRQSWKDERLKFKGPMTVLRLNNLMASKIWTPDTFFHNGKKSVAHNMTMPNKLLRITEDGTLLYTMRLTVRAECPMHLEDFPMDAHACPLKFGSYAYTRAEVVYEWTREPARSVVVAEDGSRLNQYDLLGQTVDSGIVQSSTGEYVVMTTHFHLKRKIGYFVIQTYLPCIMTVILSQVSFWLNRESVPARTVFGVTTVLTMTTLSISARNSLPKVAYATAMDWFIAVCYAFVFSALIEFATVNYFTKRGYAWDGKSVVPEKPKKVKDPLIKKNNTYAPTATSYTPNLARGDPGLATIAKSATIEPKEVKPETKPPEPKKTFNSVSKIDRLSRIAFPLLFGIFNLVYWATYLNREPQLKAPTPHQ
[reply] > 30 µM
